Just for reference, PubChem BioAssay AID1963979 is where these values come from.

Test system: 361931-004-R-J1-PDC multicell spheroid viability
Test: Anticancer human tumor 361931-004-R-J1-PDC patient-derived colon adenocarcinoma cell line growth inhibition [PI3K]
Conditions: second compound 0.01 µM; first compound 1 µM; stronger effect = lower value

compound | measuredOn | viability, T/C [%]
CC1(C)CCC(CN2CCN(c3ccc(C(=O)NS(=O)(=O)c4ccc(NCC5CCOCC5)c([N+](=O)[O-])c4)c(Oc4cnc5[nH]ccc5c4)c3)CC2)=C(c2ccc(Cl)cc2)C1 + COc1c(OCCCN2CCOCC2)ccc2c3n(c(=NC(=O)c4cnc(N)nc4)nc12)CCN3 | 361931-004-R-J1-PDC multicell spheroid viability | 101
CNC(=O)c1ccc(N2C(=S)N(c3ccc(C#N)c(C(F)(F)F)c3)C(=O)C2(C)C)cc1F + COc1c(OCCCN2CCOCC2)ccc2c3n(c(=NC(=O)c4cnc(N)nc4)nc12)CCN3 | 361931-004-R-J1-PDC multicell spheroid viability | 98.2
CC1(C)CCC(Nc2ncc(C(F)(F)F)c(-c3c[nH]c4c(P(C)(C)=O)c(C#N)ccc34)n2)CN1 (stereo not given) + CC(Nc1ccc2c(c1)OCCn1cc(N3C(=O)OCC3C(F)F)nc1-2)C(N)=O | 361931-004-R-J1-PDC multicell spheroid viability | 77.9
CCN1CCN(Cc2ccc(Nc3ncc(F)c(-c4cc(F)c5nc(C)n(C(C)C)c5c4)n3)nc2)CC1 + CC(Nc1ccc2c(c1)OCCn1cc(N3C(=O)OCC3C(F)F)nc1-2)C(N)=O | 361931-004-R-J1-PDC multicell spheroid viability | 56.7
CC(Cn1ccc(-c2ccc(C#N)c(Cl)c2)n1)NC(=O)c1cc(C(C)O)[nH]n1 (stereo not given) + CC(Nc1ccc2c(c1)OCCn1cc(N3C(=O)OCC3C(F)F)nc1-2)C(N)=O | 361931-004-R-J1-PDC multicell spheroid viability | 93.7

---

System: 361931-004-R-J1-PDC multicell spheroid viability
Assay: Anticancer human tumor 361931-004-R-J1-PDC cell line growth inhibition [PI3K];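 also: spheroids exposed to agents for seven days before readout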
Conditions: second compound 10 µM; first compound 0.01 µM; stronger effect = lower value
# viability, T/C annotations

compound | viability, T/C (%)
CCN1CCN(Cc2ccc(Nc3ncc(F)c(-c4cc(F)c5nc(C)n(C(C)C)c5c4)n3)nc2)CC1 + Cc1nc(NC(=O)N2CCCC2C(N)=O)sc1-c1ccnc(C(C)(C)C(F)(F)F)c1 | 59
CCN1CCN(Cc2ccc(Nc3ncc(F)c(-c4cc(F)c5nc(C)n(C(C)C)c5c4)n3)nc2)CC1 + CC(Nc1ncnc2nc[nH]c12)c1cc2cccc(Cl)c2c(=O)n1-c1ccccc1 | 102
CC(=O)c1c(C)c2cnc(Nc3ccc(N4CCNCC4)cn3)nc2n(C2CCCC2)c1=O + Cc1nc(NC(=O)N2CCCC2C(N)=O)sc1-c1ccnc(C(C)(C)C(F)(F)F)c1 | 58.4
CC(C)n1nc(-c2ccc3oc(N)nc3c2)c2c(N)ncnc21 + CC(Nc1ncnc2nc[nH]c12)c1cc2cccc(Cl)c2c(=O)n1-c1ccccc1 | 104
CC(C)n1nc(-c2ccc3oc(N)nc3c2)c2c(N)ncnc21 + Cc1nc(NC(=O)N2CCCC2C(N)=O)sc1-c1ccnc(C(C)(C)C(F)(F)F)c1 | 60
CC(=O)c1c(C)c2cnc(Nc3ccc(N4CCNCC4)cn3)nc2n(C2CCCC2)c1=O + CC(Nc1ncnc2nc[nH]c12)c1cc2cccc(Cl)c2c(=O)n1-c1ccccc1 | 94.1
Cn1ncnc1[C@H]1c2n[nH]c(=O)c3cc(F)cc(c23)N[C@@H]1c1ccc(F)cc1 + CC(Nc1ncnc2nc[nH]c12)c1cc2cccc(Cl)c2c(=O)n1-c1ccccc1 | 100
Cn1ncnc1[C@H]1c2n[nH]c(=O)c3cc(F)cc(c23)N[C@@H]1c1ccc(F)cc1 + Cc1nc(NC(=O)N2CCCC2C(N)=O)sc1-c1ccnc(C(C)(C)C(F)(F)F)c1 | 56.6

---

System: 361931-004-R-J1-PDC multicell spheroid viability
Test: Anticancer human tumor 361931-004-R-J1-PDC cell line growth inhibition [PI3K];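 also: spheroids exposed to agents for seven days before readout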
Conditions: second compound 0.1 µM; first compound 10 µM; stronger effect = lower value
Consider the cut-off 20%. If the recorded viability, T/C is strictly smaller, the label is true (1); if not, the label is false (0).

compound | classification
C=CC(=O)N1CCN(c2nc(=O)n(-c3c(C)ccnc3C(C)C)c3nc(-c4c(O)cccc4F)c(F)cc23)C(C)C1 (stereo not given) + COc1c(OCCCN2CCOCC2)ccc2c3n(c(=NC(=O)c4cnc(N)nc4)nc12)CCN3 | false (0)
CNC(=O)c1ccc(N2C(=S)N(c3ccc(C#N)c(C(F)(F)F)c3)C(=O)C2(C)C)cc1F + CC(Nc1ccc2c(c1)OCCn1cc(N3C(=O)OCC3C(F)F)nc1-2)C(N)=O | false (0)
Cn1ncc(Cl)c1-c1cc(C(=O)NC(CN)Cc2cccc(F)c2)sc1Cl (stereo not given) + CC(Nc1ccc2c(c1)OCCn1cc(N3C(=O)OCC3C(F)F)nc1-2)C(N)=O | true (1)
C=CC(=O)N1CCN(c2nc(=O)n(-c3c(C)ccnc3C(C)C)c3nc(-c4c(O)cccc4F)c(F)cc23)C(C)C1 (stereo not given) + CC(Nc1ncnc2nc[nH]c12)c1cc2cccc(Cl)c2c(=O)n1-c1ccccc1 | false (0)
CC(C)NCC(C(=O)N1CCN(c2ncnc3c2C(C)CC3O)CC1)c1ccc(Cl)cc1 (stereo not given) + COc1c(OCCCN2CCOCC2)ccc2c3n(c(=NC(=O)c4cnc(N)nc4)nc12)CCN3 | false (0)

---

System: 361931-004-R-J1-PDC multicell spheroid viability
Experiment: Anticancer human tumor 361931-004-R-J1-PDC cell line growth inhibition [PI3K];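 also: spheroids exposed to agents for seven days before readout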
Conditions: second compound 1 µM; first compound 0.00316 µM; stronger effect = lower value
# viability, T/C annotations

molecule | viability, T/C [%]
CCN1CCN(Cc2ccc(Nc3ncc(F)c(-c4cc(F)c5nc(C)n(C(C)C)c5c4)n3)nc2)CC1 + CC(Nc1ncnc2nc[nH]c12)c1cc2cccc(Cl)c2c(=O)n1-c1ccccc1 | 105
CC(C)n1nc(-c2ccc3oc(N)nc3c2)c2c(N)ncnc21 + CC(Nc1ncnc2nc[nH]c12)c1cc2cccc(Cl)c2c(=O)n1-c1ccccc1 | 104
CC(=O)c1c(C)c2cnc(Nc3ccc(N4CCNCC4)cn3)nc2n(C2CCCC2)c1=O + CC(Nc1ncnc2nc[nH]c12)c1cc2cccc(Cl)c2c(=O)n1-c1ccccc1 | 101
CC(=O)c1c(C)c2cnc(Nc3ccc(N4CCNCC4)cn3)nc2n(C2CCCC2)c1=O + CC(Nc1ccc2c(c1)OCCn1cc(N3C(=O)OCC3C(F)F)nc1-2)C(N)=O | 75
Cn1ncnc1[C@H]1c2n[nH]c(=O)c3cc(F)cc(c23)N[C@@H]1c1ccc(F)cc1 + Cc1nc(NC(=O)N2CCCC2C(N)=O)sc1-c1ccnc(C(C)(C)C(F)(F)F)c1 | 84.5
CCN1CCN(Cc2ccc(Nc3ncc(F)c(-c4cc(F)c5nc(C)n(C(C)C)c5c4)n3)nc2)CC1 + CC(Nc1ccc2c(c1)OCCn1cc(N3C(=O)OCC3C(F)F)nc1-2)C(N)=O | 75.4

---

Test system: 361931-004-R-J1-PDC multicell spheroid viability
Assay: Anticancer human tumor 361931-004-R-J1-PDC cell line growth inhibition [PI3K];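 also: spheroids exposed to agents for seven days before readout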
Conditions: curve of first compound; second compound 10 µM
pIC50: −log10 of the molar value.
Class 1: pIC50 at least 6. Class -1: pIC50 below 6.

compound | measuredOn | classification
CCN1CCN(Cc2ccc(Nc3ncc(F)c(-c4cc(F)c5nc(C)n(C(C)C)c5c4)n3)nc2)CC1 + CC(Nc1ncnc2nc[nH]c12)c1cc2cccc(Cl)c2c(=O)n1-c1ccccc1 | 361931-004-R-J1-PDC multicell spheroid viability | -1
Cn1nccc1Nc1nccc(-c2ccn(C(CO)c3ccc(Cl)c(F)c3)c(=O)c2)n1 (stereo not given) + Cc1nc(NC(=O)N2CCCC2C(N)=O)sc1-c1ccnc(C(C)(C)C(F)(F)F)c1 | 361931-004-R-J1-PDC multicell spheroid viability | 1
CNC(=O)c1ccc(N2C(=S)N(c3ccc(C#N)c(C(F)(F)F)c3)C(=O)C2(C)C)cc1F + CC(Nc1ncnc2nc[nH]c12)c1cc2cccc(Cl)c2c(=O)n1-c1ccccc1 | 361931-004-R-J1-PDC multicell spheroid viability | -1
C[C@@H](NC(=O)c1ncnc(N)c1Cl)c1ncc(C(=O)Nc2cc(C(F)(F)F)c(Cl)cn2)s1 + Cc1nc(NC(=O)N2CCCC2C(N)=O)sc1-c1ccnc(C(C)(C)C(F)(F)F)c1 | 361931-004-R-J1-PDC multicell spheroid viability | 1
Cn1cnc2c(F)c(Nc3ccc(Br)cc3Cl)c(C(=O)NOCCO)cc21 + Cc1nc(NC(=O)N2CCCC2C(N)=O)sc1-c1ccnc(C(C)(C)C(F)(F)F)c1 | 361931-004-R-J1-PDC multicell spheroid viability | 1
C=CC(=O)N1CCN(c2nc(=O)n(-c3c(C)ccnc3C(C)C)c3nc(-c4c(O)cccc4F)c(F)cc23)C(C)C1 (stereo not given) + Cc1nc(NC(=O)N2CCCC2C(N)=O)sc1-c1ccnc(C(C)(C)C(F)(F)F)c1 | 361931-004-R-J1-PDC multicell spheroid viability | -1
CC(Cn1ccc(-c2ccc(C#N)c(Cl)c2)n1)NC(=O)c1cc(C(C)O)[nH]n1 (stereo not given) + CC(Nc1ncnc2nc[nH]c12)c1cc2cccc(Cl)c2c(=O)n1-c1ccccc1 | 361931-004-R-J1-PDC multicell spheroid viability | -1
CCCS(=O)(=O)Nc1ccc(F)c(C(=O)c2c[nH]c3ncc(-c4ccc(Cl)cc4)cc23)c1F + CC(Nc1ncnc2nc[nH]c12)c1cc2cccc(Cl)c2c(=O)n1-c1ccccc1 | 361931-004-R-J1-PDC multicell spheroid viability | -1
CC(C)NCC(C(=O)N1CCN(c2ncnc3c2C(C)CC3O)CC1)c1ccc(Cl)cc1 (stereo not given) + Cc1nc(NC(=O)N2CCCC2C(N)=O)sc1-c1ccnc(C(C)(C)C(F)(F)F)c1 | 361931-004-R-J1-PDC multicell spheroid viability | 1
